# Test system: Calu-3
# Test description: cell viability relative to DMSO; higher = less toxic
# Test parameters: 72 h; 100 nM
Readout: cell viability (%)
Use % as the unit, but write only the number.

- Compound: "Cc1ccc(C(=O)N(CCCN)[C@@H](c2nc3cc(Cl)ccc3c(=O)n2Cc2ccccc2)C(C)C)cc1"
  Readout: "cell viability"
  Observed: 90.8
- Compound: "COc1cccc(-n2nc(C(=O)O)cc2-c2ccc(C3CCCCC3)c(Cl)c2)c1"
  Readout: "cell viability"
  Observed: 101

Alright, here's another compound for you.
Recorded result, `O=C(O)c1ccc(S(=O)(=O)N(Cl)Cl)cc1` , cell viability: 95.4

====

# Test system: Vero E6
# Test description: cell viability relative to DMSO; higher = less toxic
# Test parameters: 72 h; 1 nM
Documented cell viability across a set of compounds
Use % as the unit, but write only the number.

For orientation, consider the following solved cases.
- Compound: "COc1cccc(-c2cc(=O)c3ccccc3o2)c1N"
  Output unit: "%"
  Observed: 109
- Compound: "Cc1cc(C)c(NC(=O)N(Cc2ccc3c(c2)Cc2ccccc2-3)C2CCCCCC2)c(C)c1"
  Output unit: "%"
  Observed: 96.9
- Compound: "Oc1ccc2ccccc2c1Cc1c(O)ccc2ccccc12"
  Output unit: "%"
  Observed: 98.3
- Compound: "COc1ccc(-n2[nH]c3c4c(ncc3c2=O)CCCCC4)cc1"
  Output unit: "%"
  Observed: 102
- Compound: "CNCc1ccc(C)c(NC(=O)c2ccc(Nc3nc(-c4ccccc4)c4ccccc4n3)cc2)c1"
  Output unit: "%"
  Observed: 101
- Compound: "CC(C)c1nc(CN(C)C(=O)N[C@H](C(=O)N[C@@H](Cc2ccccc2)C[C@H](O)[C@H](Cc2ccccc2)NC(=O)OCc2cncs2)C(C)C)cs1"
  Output unit: "%"
  Observed: 94.4
- Compound: "C=CCn1c(=O)c2cnc(Nc3ccc(N4CCN(C)CC4)cc3)nc2n1-c1cccc(C(C)(C)O)n1"
  Output unit: "%"
  Observed: 100
- Compound: "CNC(=O)c1c(F)cccc1Nc1nc(Nc2cc3c(cc2OC)CCN3C(=O)CN(C)C)nc2[nH]ccc12"
  Output unit: "%"
  Observed: 101

Entry CC1(C)C[C@@H]1C(=O)N/C(=C\CCCCSC[C@H](N)C(=O)O)C(=O)O [Cilastatin Sodium] under Vero E6 had cell viability of 104

Entry `O=C(Nc1cc(-c2ccccc2)nn1-c1ccccc1F)c1ccc([N+](=O)[O-])cc1` under Vero E6 had cell viability of 111

Entry `Oc1cccc(-c2c3nc(c(-c4cccc(O)c4)c4ccc([nH]4)c(-c4cccc(O)c4)c4nc(c(-c5cccc(O)c5)c5ccc2[nH]5)CC4)C=C3)c1` under Vero E6 had cell viability of 99.3

Entry `Cc1nc2c(O)cccc2c(=O)[nH]1` under Vero E6 had cell viability of 99.7

Entry NC(=O)C[S+]([O-])C(c1ccccc1)c1ccccc1 (centres undefined) under Vero E6 had cell viability of 97.3

Entry CC(O)COC[C@H]1O[C@@H]2O[C@H]3[C@H](O)[C@@H](O)[C@@H](O[C@H]4[C@H](O)[C@@H](O)[C@@H](O[C@H]5[C@H](O)[C@@H](O)[C@@H](O[C@H]6[C@H](O)[C@@H](O)[C@@H](O[C@H]7[C@H](O)[C@@H](O)[C@@H](O[C@H]8[C@H](O)[C@@H](O)[C@@H](O[C@H]1[C@H](O)[C@H]2O)O[C@@H]8COCC(C)O)O[C@@H]7COCC(C)O)O[C@@H]6COCC(C)O)O[C@@H]5COCC(C)O)O[C@@H]4COCC(C)O)O[C@@H]3COCC(C)O (stereo partly drawn) [hydroxypropyl-beta-cyclodextrin] under Vero E6 had cell viability of 104

====

# Test system: U2OS
# Test description: cell viability relative to DMSO; higher = less toxic
# Test parameters: 72 h; 1 nM
Documented cell viability across a set of compounds
Could you write the number and then its unit?

For orientation, consider the following solved cases.
- Compound: "CC(C)c1nc(CN(C)C(=O)N[C@H](C(=O)N[C@@H](Cc2ccccc2)C[C@H](O)[C@H](Cc2ccccc2)NC(=O)OCc2cncs2)C(C)C)cs1 [ritonavir]"
  Observed: "105%"
- Compound: "CC(C)c1cnn2c(NCc3ccccc3)cc(NCCCCCCN)nc12"
  Observed: "102%"

Recorded result, `C[C@H]1CN(C[C@H](Cc2ccccc2)C(=O)NCC(=O)O)CC[C@@]1(C)c1cccc(O)c1` , cell viability: 100%

Recorded result, `Cc1cccc(Nc2nc(-c3ccncc3)cs2)c1` , cell viability: 99.2%

====

# Tested on: Vero E6
# Test description: drug sensitivity score (DSS) for viability; higher = more toxic; extreme values may be limits of the assay
# Test parameters: 72 h
Documented drug sensitivity score across a set of compounds
Simply state the number, no unit and no words.

- Compound: "O=C(O)c1cccnc1C(=O)O"
  drug sensitivity score: 0
- Compound: "NCCCC[C@H](N)C(=O)O"
  drug sensitivity score: 0
- Compound: "CC(C)c1cnn2c(NCc3ccccc3)cc(NCCCCCCN)nc12"
  drug sensitivity score: 0.4
- Compound: "Nc1ccn([C@H]2CC[C@@H](CO)O2)c(=O)n1"
  drug sensitivity score: 0
- Compound: "Cc1cc(C(=O)Nc2cc(Oc3ccc4nc(NC(=O)C5CC5)cn4n3)ccc2C)n(C)n1"
  drug sensitivity score: 0
- Compound: "CNC(=O)c1c(F)cccc1Nc1nc(Nc2cc3c(cc2OC)CCN3C(=O)CN(C)C)nc2[nH]ccc12"
  drug sensitivity score: 0

Recorded result, CC(C[N+](C)(C)C)OC(N)=O (stereo not given) , drug sensitivity score: 0

Recorded result, `Cn1cc(C2=C(c3ccc(Cl)cc3Cl)C(=O)NC2=O)c2ccccc21` , drug sensitivity score: 0

Recorded result, `O=C1c2ccccc2C(Cc2ccncc2)(Cc2ccncc2)c2ccccc21` , drug sensitivity score: 0

Recorded result, `Cc1[nH]c2ccccc2c1CCNCc1ccc(/C=C/C(=O)NO)cc1` , drug sensitivity score: 22.3

====

# Tested on: A549-ACE2 infected with SARS-CoV-2
# Test description: SARS-CoV-2 infection rate relative to DMSO; higher = more infection
# Test parameters: 0.3 µM; 24 h
Documented SARS-CoV-2 infection rate across a set of compounds

For orientation, consider the following solved cases.
- Compound: "CCCCN1[C@@H]2CC[C@H]1C[C@@H](OC(c1ccc(F)cc1)c1ccc(F)cc1)C2 [JHW-007]"
  SARS-CoV-2 infection rate: "85%"
- Compound: "Cn1cc(C2=C(c3ccc(Cl)cc3Cl)C(=O)NC2=O)c2ccccc21"
  SARS-CoV-2 infection rate: "109%"
- Compound: "N=C(N)c1cc2ccc(OC(=O)c3cccs3)cc2s1 [BCX-1470]"
  SARS-CoV-2 infection rate: "97%"
- Compound: "Nc1nccc(Oc2ccc(NC(=O)c3c[nH]cc(-c4ccc(F)cc4)c3=O)cc2F)c1Cl [metatinib]"
  SARS-CoV-2 infection rate: "101%"

Recorded result, [O-][n+]1ccccc1[S-].[O-][n+]1ccccc1[S-].[Zn+2] [pyrithione-zinc] , SARS-CoV-2 infection rate: 95%

Recorded result, `Cc1cccc(Nc2nc(-c3ccncc3)cs2)c1` , SARS-CoV-2 infection rate: 91%

====

# System: HepG2
# Test description: drug sensitivity score (DSS) for viability; higher = more toxic; extreme values may be limits of the assay
# Test parameters: 72 h
Readout: drug sensitivity score
Simply state the number, no unit and no words.

- Molecule: "COc1ccc(Nc2ccn(-c3ccccc3)n2)cc1"
  Target: "HepG2"
  drug sensitivity score: 0
- Molecule: "C[C@]12CC[C@H]3[C@@H](CCC4=CC(=O)CC[C@@]43C)[C@@H]1CC[C@@H]2C(=O)CO [desoxycortone]"
  Target: "HepG2"
  drug sensitivity score: 0
- Molecule: "CCCc1nc(C)c2c(=O)nc(-c3cc(S(=O)(=O)N4CCN(CC)CC4)ccc3OCC)[nH]n12 [vardenafil]"
  Target: "HepG2"
  drug sensitivity score: 0
- Molecule: "O=C1OCCN1/N=C/c1ccc([N+](=O)[O-])o1 [furazolidone]"
  Target: "HepG2"
  drug sensitivity score: 0.8
- Molecule: "CC(C)N[C@H]1CCn2c(=O)[nH]c3cccc(c32)[C@@H]1O [zilpaterol]"
  Target: "HepG2"
  drug sensitivity score: 0

Alright, here's another molecule for you.
Recorded result, CCc1nn(CCO)c(CC)c1Oc1cc(C#N)cc(C#N)c1 [lersivirine] , drug sensitivity score: 0

====

Documented cell viability across a set of compounds
# Test system: U2OS
# Test description: cell viability relative to DMSO; higher = less toxic
# Test parameters: 72 h; 1 nM
Use % as the unit, but write only the number.

For orientation, consider the following solved cases.
- Compound: "O=C1OCCN1/N=C/c1ccc([N+](=O)[O-])o1 [furazolidone]"
  Output unit: "%"
  cell viability: 101
- Compound: "Cl/C(=C\\n1cncn1)c1ccc(Cl)cc1Cl [loreclezole]"
  Output unit: "%"
  cell viability: 95.9
- Compound: "CC(C)(CO)c1cc2cc(NC(=O)C3(c4ccc5c(c4)OC(F)(F)O5)CC3)c(F)cc2n1C[C@@H](O)CO [tezacaftor]"
  Output unit: "%"
  cell viability: 99.2
- Compound: "COc1cc(CN(CCN)C(=O)c2cccs2)ccc1OCc1ccccc1 [M8-B]"
  Output unit: "%"
  cell viability: 95.1
- Compound: "C[C@]12C=CC(=O)C=C1CC[C@@H]1[C@@H]2[C@@H](O)C[C@@]2(C)[C@H]1CC[C@]2(O)C(=O)COP(=O)(O)O [prednisolone-sodium-phosphate]"
  Output unit: "%"
  cell viability: 95.1

Alright, here's another compound for you.
Recorded result, NC(=O)c1cc([N+](=O)[O-])cc([N+](=O)[O-])c1 [nitromide] , cell viability: 100
